Documented switch fluorescence ratio across a set of sequences
# System: ATP;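 also: ATP exposure 15 min at 22 °C before imaging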
# protocol.notes: switch fluorescence ratio, 500 uM ATP over buffer (Cy3 cluster intensity, sum of 5 cycles each) (fold (ratio)); higher = stronger signal-on switching upon ATP binding; sequences stand for … in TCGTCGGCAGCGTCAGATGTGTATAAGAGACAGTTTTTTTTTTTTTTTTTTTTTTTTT…TC
# assay.context: aptamer strand: ATP DNA aptamer (quencher-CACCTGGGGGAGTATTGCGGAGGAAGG + anchor), 100 nM annealed; ATP concentration: 500 uM
metric: switch fluorescence ratio

residue.sequence: ACAGTAAGTT
result.value: 1.07
//
residue.sequence: TTGCGAGTTG
result.value: 1
//
residue.sequence: CGAGGGTAAG
result.value: 1
//
residue.sequence: TTTGTTTGCA
result.value: 1.01
//
residue.sequence: CGGTTCTGTA
result.value: 1.01
//
residue.sequence: CCGTCTCTCC
result.value: 1.73
//
residue.sequence: ATCTTAAGTA
result.value: 0.998
//
residue.sequence: TCGGGATCTG
result.value: 0.997
//
residue.sequence: TCCAGGGCG
result.value: 1.03
//
residue.sequence: AGGTTCCTAG
result.value: 0.978
//
residue.sequence: AAAGAATTTC
result.value: 0.981
//
residue.sequence: TTAAATTATT
result.value: 0.984
//
residue.sequence: GTGCCTTAGG
result.value: 0.998
//
residue.sequence: GTGTTTGGTT
result.value: 1.01
//
residue.sequence: TTGTTAGAA
result.value: 1
//
residue.sequence: ACAGCTTTTT
result.value: 1.01
//
residue.sequence: GGGATACTAG
result.value: 1.01
//
residue.sequence: ACTAGGGGTT
result.value: 1.23
//
residue.sequence: GCGCGCGGAA
result.value: 1.02
//
residue.sequence: TTTTCCTGAG
result.value: 1.04
//
residue.sequence: TGGGGCGGGT
result.value: 1.02
//
residue.sequence: GATTTCGGGA
result.value: 1.01
//
residue.sequence: TAATTAGCGC
result.value: 1.03
//
residue.sequence: CGTTTACGGA
result.value: 0.998
//
residue.sequence: ATCAGTTAAT
result.value: 0.996
//
residue.sequence: AGGGGAGTTA
result.value: 1.02
//
residue.sequence: TTTGGATATG
result.value: 0.992
//
residue.sequence: GTAGTCGGGT
result.value: 1.01
//
residue.sequence: AATCATCGGT
result.value: 0.999
//
residue.sequence: GTATGATTGT
result.value: 0.994
//
residue.sequence: GGGGCGTAGT
result.value: 1
//
residue.sequence: ATTTGGATGG
result.value: 0.985
//
residue.sequence: TTAGTACCCT
result.value: 1.06
//
residue.sequence: CACGTTGCCT
result.value: 0.979
//
residue.sequence: GCCTGATGCG
result.value: 0.997
//
residue.sequence: CGGGTGTAGT
result.value: 1.03
//
residue.sequence: ATCCGAGATG
result.value: 1.03
//
residue.sequence: ATGCTGGTGG
result.value: 0.978
//
residue.sequence: ATCTAAGTTC
result.value: 1.01
//
residue.sequence: GGGCTGGCTG
result.value: 0.998
//
residue.sequence: TCCCATGGCG
result.value: 1.04
//
residue.sequence: TTCAGACTTT
result.value: 0.996
//
residue.sequence: CTGGTTCAGA
result.value: 0.994
